- system: MtInhA:NADH binary complex (Mycobacterium tuberculosis, UniProt P9WGR1)
- Construct: made in house
- Sequence (P9WGR1 whole entry, looked up, one chain of several): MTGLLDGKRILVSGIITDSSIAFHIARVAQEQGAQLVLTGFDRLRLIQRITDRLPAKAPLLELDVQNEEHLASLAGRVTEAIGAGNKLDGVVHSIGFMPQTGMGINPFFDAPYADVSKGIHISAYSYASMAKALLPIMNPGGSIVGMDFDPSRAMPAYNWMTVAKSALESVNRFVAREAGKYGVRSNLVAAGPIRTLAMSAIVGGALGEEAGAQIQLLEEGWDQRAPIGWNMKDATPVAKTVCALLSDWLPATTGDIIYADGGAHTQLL
- methodSummary: biochemical
- Format: binding
- assayConditions: van't Hoff analysis, 15–30 °C

# molecule, unitTag, ΔH
rows = [
    ("COc1ccc(-c2n[nH]cc2/C=N\\NC(=O)c2cc(C)nc3c(C)cccc23)cc1 [Labio_11]", "kcal/mol", -18.7),
    ("CCCOc1ccc(-c2nnc(NC(=O)Nc3ccccc3C)s2)cc1 [Labio_3]", "kcal/mol", -27.8),
    ("CCOC(=O)c1ccc2nc(C)cc(Nc3ccc(N4CCCCC4)cc3)c2c1 [Labio_17]", "kcal/mol", -23.3),
    ("CCN(CC)Cc1cc(-c2ccnc3cc(Cl)ccc23)ccc1O [Labio_15]", "kcal/mol", -9.6),
    ("Cc1nc([C@H](C)NC(=O)c2ccc3oc(Cc4ccccc4F)nc3c2)cs1 [Labio_2]", "kcal/mol", -37.7),
    ("COc1ccc(CCC(=O)Nc2nn3cc(-c4ccccc4)nc3s2)cc1 [Labio_6]", "kcal/mol", -44.7),
]
